- systemTested: HpαCA (Helicobacter pylori, UniProt O25798)
- Construct: recombinant, expressed in E. coli (DE3), purified
- Sequence (O25798 19-202): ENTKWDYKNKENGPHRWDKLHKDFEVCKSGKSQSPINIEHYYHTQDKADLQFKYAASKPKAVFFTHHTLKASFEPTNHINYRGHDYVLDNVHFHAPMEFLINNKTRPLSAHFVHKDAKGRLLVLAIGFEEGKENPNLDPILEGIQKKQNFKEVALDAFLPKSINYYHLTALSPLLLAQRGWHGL
- assayMethodText: stopped-flow CO2 hydrase assay
- runConditions: HEPES pH 7.40, 20 mM Na2SO4, 15 min preincubation, room temperature
assayMetric: Ki (µM)
Give just the numeric value; µM need not be written.

*Q* Provide only the value of recorded Ki for `CNC(=S)NN=C(C)c1ccc(-c2cc3ccccc3[nH]2)cc1`
*A* 95.2
